meta.source: patent US10703746B2

tested target: IDH1 R132C (Homo sapiens, UniProt O75874, R132C)
Sequence (O75874 whole entry R132C): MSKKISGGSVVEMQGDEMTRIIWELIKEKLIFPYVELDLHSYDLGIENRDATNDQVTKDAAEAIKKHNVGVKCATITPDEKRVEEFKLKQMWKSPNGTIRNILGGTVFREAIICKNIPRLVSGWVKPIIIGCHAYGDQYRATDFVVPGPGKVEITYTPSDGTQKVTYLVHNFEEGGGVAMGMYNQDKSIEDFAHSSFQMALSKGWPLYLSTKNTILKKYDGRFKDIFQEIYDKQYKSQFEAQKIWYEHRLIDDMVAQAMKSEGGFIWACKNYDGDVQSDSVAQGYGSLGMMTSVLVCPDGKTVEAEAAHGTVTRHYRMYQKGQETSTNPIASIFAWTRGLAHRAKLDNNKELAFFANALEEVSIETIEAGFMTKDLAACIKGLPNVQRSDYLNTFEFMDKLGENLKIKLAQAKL
assay protocol: IDH1 R132C enzymatic assay (NADPH depletion coupled to diaphorase/resazurin)
Format: biochemical
condition description: IDH1 R132C enzymatic inhibition, IC50 class
pIC50: −log10 of the molar value.
pIC50 values by entry

* CCc1cccc(CC)c1-n1c(C)c(C(=O)N(C)CCCNC)cc(-c2nc(-c3ccc(Cl)cc3)cs2)c1=O | 5.30 to 6.00
* CCOC(=O)c1cc(-c2nc(-c3ccc(Cl)cc3)cs2)c(=O)n(-c2c(CC)cccc2CC)c1-c1ccccc1 | < 4.70
* CC(C)n1c2c(cc(-c3nc(-c4ccc(Cl)cc4)cs3)c1=O)C(=O)CC(C)(C)C2 | 5.30 to 6.00

Input line: Could you tell me which pIC50 is on file for `COc1ccc(F)cc1-n1c(C=C(C)C)c(C(=O)N2CCNCC2)cc(-c2nc(-c3ccc(Cl)cc3)cs2)c1=O` ?
Output line: > 6.52

Input line: Entry under review: CCc1cccc(CC)c1N1C(=O)C(c2nc(-c3ccc(Cl)cc3)cs2)CC(C(=O)N2CCNCC2)=C1CC(C)C (stereo not drawn) . Reported pIC50?
Output line: > 6.52

Input line: Any idea what its pIC50 is? The molecule is `CCc1cccc(CC)c1-n1c(C)c(C(=O)NC2CCOCC2)cc(-c2nc(-c3ccc(Cl)cc3)cs2)c1=O`
Output line: 5.30 to 6.00
